Every entry's value here was drawn from patent US20150218212A1.

tested on: HCT-116; assay: NCI screening panel, HCT-116 (Colon Cancer); assay type: cell-based, human
measured parameter: Log10GI50

Worked examples follow.
CC(C)C[C@H](NC(=O)[C@H](COC(F)F)NC(=O)[C@H](COC(F)F)NC(=O)[C@H](CCc1ccccc1)NC(=O)CN1CCOCC1)C(=O)[C@@]1(C)CO1 <−8.00
CC(C)C[C@H](NC(=O)[C@H](COC(F)F)NC(=O)CN1CCOCC1)C(=O)N[C@@H](Cc1ccccc1)C(=O)N[C@@H](CC(C)C)C(=O)[C@@]1(C)CO1 <-8.00

Okay, next one:
*Q* Quick one: give measured Log10GI50 for CC(C)C[C@H](NC(=O)[C@H](COC(F)F)NC(=O)CN1CCOCC1)C(=O)N[C@@H](COC(F)F)C(=O)N[C@@H](CC(C)C)C(=O)[C@@]1(C)CO1
*A* -8.00
